Attribution: paper PMC4290623

target: CAMK2G (Homo sapiens, UniProt Q13555)
Sequence (Q13555 whole entry): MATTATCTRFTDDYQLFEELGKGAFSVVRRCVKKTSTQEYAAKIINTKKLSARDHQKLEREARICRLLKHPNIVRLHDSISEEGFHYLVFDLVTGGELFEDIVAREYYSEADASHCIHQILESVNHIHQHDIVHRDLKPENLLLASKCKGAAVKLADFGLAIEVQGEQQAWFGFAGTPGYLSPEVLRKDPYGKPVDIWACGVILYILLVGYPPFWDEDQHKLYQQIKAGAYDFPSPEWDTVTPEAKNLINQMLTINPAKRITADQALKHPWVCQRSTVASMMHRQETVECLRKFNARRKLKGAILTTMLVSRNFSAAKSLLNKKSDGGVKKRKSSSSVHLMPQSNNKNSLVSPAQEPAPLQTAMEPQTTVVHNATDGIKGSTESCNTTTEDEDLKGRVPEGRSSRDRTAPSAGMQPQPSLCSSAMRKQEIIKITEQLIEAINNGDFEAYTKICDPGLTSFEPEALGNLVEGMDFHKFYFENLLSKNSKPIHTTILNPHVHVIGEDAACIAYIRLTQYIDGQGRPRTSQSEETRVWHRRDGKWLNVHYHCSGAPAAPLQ
pIC50: −log10 of the molar value.
quantity: pIC50

### Prompt Form: Entry = O=c1c(O)c(-c2ccc(O)c(O)c2)oc2cc(O)cc(O)c12 [Quercetin, quercetin, reference compound] | System = CAMK2G (Homo sapiens, UniProt Q13555) | pIC50 = ____
### Response ~6.00
